Every entry's value here was drawn from ChEMBL document CHEMBL1125574.

- Test system: Calf thymus DNA
- assayName: Denaturation temperature change on binding to calf thymus DNA
- Type: functional
Note to self: values exactly at 10 are yes. So ΔTm at or above 10 is yes, below is no.

molecule=N=C(N)c1ccc(NCCCCNc2ccc(C(=N)N)cc2N)c(N)c1 classname=yes
molecule=N=C(N)c1cccc(OCCCCCCOc2cccc(C(=N)N)c2)c1 classname=no
molecule=N=C(N)c1ccc(OCCCCOc2ccc(C(=N)N)cc2N)c(N)c1 classname=no
molecule=N=C(N)c1ccc(OCCOc2ccc(C(=N)N)cc2[N+](=O)[O-])c([N+](=O)[O-])c1 classname=no
molecule=N=C(N)c1cccc(OCCCCOc2cccc(C(=N)N)c2)c1 classname=no
molecule=N=C(N)c1ccc(NCCCNc2ccc(C(=N)N)cc2)cc1 classname=yes
molecule=N=C(N)c1ccc(OCCCCCCOc2ccc(C(=N)N)cc2)cc1 classname=no
molecule=N=C(N)c1ccc(OCCCOc2ccc(C(=N)N)cc2)cc1 classname=yes
molecule=N=C(N)c1ccc(NCCCNc2ccc(C(=N)N)cc2[N+](=O)[O-])c([N+](=O)[O-])c1 classname=yes
molecule=N=C(N)c1ccc(OCCCCOc2ccc(C(=N)N)cc2)cc1 classname=no
molecule=N=C(N)c1ccc(OCCOc2ccc(C(=N)N)cc2N)c(N)c1 classname=no

---

Reported ΔTm values for the following compounds.
- Test system: Nucleic Acid
- assayName: DNA binding property estimated by measuring denaturation temperature on GC to poly (dGC)-poly(dGC), normalized to ethidium bromide
recordedEndpoint: ΔTm

molecule=N=C(N)c1ccc(NCCCCCNc2ccc(C(=N)N)cc2N)c(N)c1 recordedendpoint=ΔTm experimentalvalue=0.6
molecule=Cn1cc(NC(=O)c2cc(NC(=O)CNC(=N)N)cn2C)cc1C(=O)NCCC(=N)N recordedendpoint=ΔTm experimentalvalue=0.2
molecule=N=C(N)c1ccc(NCCCNc2ccc(C(=N)N)cc2[N+](=O)[O-])c([N+](=O)[O-])c1 recordedendpoint=ΔTm experimentalvalue=0.9
molecule=N=C(N)c1ccc(-c2cc3ccc(C(=N)N)cc3[nH]2)cc1 recordedendpoint=ΔTm experimentalvalue=1.3
